test: Cytotoxicity against human colon cancer cells after 48 hrs; format: functional; details: Cancer cell lines, read-out: LC50 (the source's name)
Kindly state CC50 for each of the entries shown.
Lab note: write values as number then unit, every time.

smiles-input: O=C1Nc2ccc(Cl)cc2/C1=C\c1c(Cl)n(CCCc2ccccc2)c2ccccc12
result: 19.1 µM
--
smiles-input: COc1ccc(CCn2c(Cl)c(/C=C3/C(=O)Nc4ccccc43)c3ccccc32)cc1
result: 52.5 µM
--
smiles-input: COc1cc2c(/C=C3/C(=O)Nc4cccc(Cl)c43)c(Cl)n(Cc3cc(OC)c(OC)c(OC)c3)c2cc1C
result: 51.3 µM
--
smiles-input: COc1c(/C=C2/C(=O)Nc3ccc(Cl)cc32)c2ccccc2n1-c1ccccc1
result: 60.3 µM
--
smiles-input: COc1cc2c(/C=C3/C(=O)Nc4ccc(Cl)cc43)c(Cl)n(Cc3cc(OC)c(OC)c(OC)c3)c2cc1C
result: 29.5 µM

Batch lookup, CC50 per entry.
1. COc1cc2c(c(OC)c1OC)/C(=C\c1c(Cl)[nH]c3ccccc13)C(=O)N2
2. COc1c(/C=C2/C(=O)Nc3ccccc32)c2ccccc2n1-c1ccccc1
3. O=C1Nc2ccc(O)cc2/C1=C\c1c(Cl)n(CCc2ccccc2)c2ccccc12
4. COc1ccc(OC)c2c1NC(=O)/C2=C/c1c(Cl)[nH]c2ccccc12
5. O=C1Nc2ccccc2/C1=C\c1c(Cl)n(Cc2ccccc2)c2ccccc12
6. COc1ccc2c(c1)/C(=C\c1c(OC)n(-c3ccccc3)c3ccccc13)C(=O)N2

Result:
1. 18.2 µM
2. 7.94 µM
3. 72.4 µM
4. 33.9 µM
5. 95.5 µM
6. 42.7 µM

###

assay: Cytotoxicity against human prostate cancer cells after 48 hrs; assay type: functional; conditions: Cancer cell lines, read-out: LC50 (the source's name)
CC50 less than 50 µM is Criterion met; CC50 greater than or equal to 50 µM is Criterion not met.

Please review the following examples before continuing.
smiles-input: COc1ccc(CCn2c(Cl)c(/C=C3/C(=O)Nc4ccccc43)c3ccccc32)cc1
cat: Criterion not met
//
smiles-input: COc1cc2c(/C=C3/C(=O)Nc4ccc(Cl)cc43)c(Cl)n(Cc3cc(OC)c(OC)c(OC)c3)c2cc1C
cat: Criterion met
//
smiles-input: COc1ccc2c(c1)/C(=C\c1c(OC)n(-c3ccccc3)c3ccccc13)C(=O)N2
cat: Criterion not met
//
smiles-input: COc1cc2c(/C=C3/C(=O)Nc4cccc(Cl)c43)c(Cl)n(Cc3cc(OC)c(OC)c(OC)c3)c2cc1C
cat: Criterion met
//
smiles-input: COc1c(/C=C2/C(=O)Nc3ccccc32)c2ccccc2n1-c1ccccc1
cat: Criterion met

Query: Would you kindly verify if CC50 of O=C1Nc2ccc(Cl)cc2/C1=C\c1c(Cl)n(CCCc2ccccc2)c2ccccc12 is strictly less than 50 µM?
Result: Criterion met

Query: Would you kindly verify if CC50 of COc1c(/C=C2/C(=O)Nc3ccc(Cl)cc32)c2ccccc2n1-c1ccccc1 is strictly less than 50 µM?
Result: Criterion not met

###

Kindly state LC50 for each of the entries shown.
assay: Cytotoxicity against human NSCLC cells after 48 hrs; assay type: functional
One number for each entry, in µM.

These recorded examples may help you get a feel for the data.
smiles-input: COc1ccc(CCn2c(Cl)c(/C=C3/C(=O)Nc4ccccc43)c3ccccc32)cc1
LC50 / µM: 74.1
--
smiles-input: O=C1Nc2ccc(Cl)cc2/C1=C\c1c(Cl)n(CCCc2ccccc2)c2ccccc12
LC50 / µM: 28.8
--
smiles-input: COc1ccc2c(c1)/C(=C\c1c(OC)n(-c3ccccc3)c3ccccc13)C(=O)N2
LC50 / µM: 63.1

Now for another entry.
Consider COc1cc2c(c(OC)c1OC)/C(=C\c1c(Cl)[nH]c3ccccc13)C(=O)N2 . Its measured LC50 is 67.6

###

experiment: Cytotoxicity against human CNS cancer cells after 48 hrs; format: functional; details: Cancer cell lines
GI50 less than 3000 nM is true (1); GI50 greater than or equal to 3000 nM is false (0).

Please review the following examples before continuing.
smiles-input: O=C1/C(=C/c2c(Cl)[nH]c3ccccc23)c2ccccc2N1Cc1ccccc1
cat: false (0)
--
smiles-input: O=C1Nc2ccccc2/C1=C\c1c(Cl)n(Cc2ccccc2)c2ccccc12
cat: false (0)
--
smiles-input: COc1cc2c(/C=C3/C(=O)Nc4ccc(Cl)cc43)c(Cl)n(Cc3cc(OC)c(OC)c(OC)c3)c2cc1C
cat: true (1)

Query: Would you kindly verify if GI50 of O=C1Nc2ccc(Cl)cc2/C1=C\c1c(Cl)n(CCCc2ccccc2)c2ccccc12 is strictly less than 3000 nM?
Result: true (1)

Query: Would you kindly verify if GI50 of COc1c(/C=C2/C(=O)Nc3ccc(Cl)cc32)c2ccccc2n1-c1ccccc1 is strictly less than 3000 nM?
Result: false (0)

Query: Would you kindly verify if GI50 of COc1ccc2c(c1)/C(=C\c1c(OC)n(-c3ccccc3)c3ccccc13)C(=O)N2 is strictly less than 3000 nM?
Result: true (1)

###

test: Cytotoxicity against human breast cancer cells after 48 hrs; type: functional; details: Cancer cell lines
metric-name: TGI (µM)
Give bare numbers, in µM.

smiles-input: COc1ccc2c(c1)/C(=C\c1c(OC)n(-c3ccccc3)c3ccccc13)C(=O)N2
measurement-units: µM
numeric-result: 7.24

Batch lookup, TGI per entry.
1. COc1cc2c(/C=C3/C(=O)Nc4ccc(O)cc43)c(Cl)n(Cc3cc(OC)c(OC)c(OC)c3)c2cc1C
2. COc1ccc(OC)c2c1NC(=O)/C2=C/c1c(Cl)[nH]c2ccccc12
3. COc1ccc2c(c1)/C(=C\c1c(Cl)n(C/C=C/c3ccccc3)c3ccccc13)C(=O)N2
4. COc1ccc(CCn2c(Cl)c(/C=C3/C(=O)Nc4ccccc43)c3ccccc32)cc1
5. COc1c(/C=C2/C(=O)Nc3ccccc32)c2ccccc2n1-c1ccccc1
6. COc1cc2c(/C=C3/C(=O)Nc4cccc(Cl)c43)c(Cl)n(Cc3cc(OC)c(OC)c(OC)c3)c2cc1C

Result:
1: 34.7; 2: 12.6; 3: 36.3; 4: 6.31; 5: 4.47; 6: 15.1

###

experiment: Cytotoxicity against human breast cancer cells after 48 hrs; type: functional; conditions: Cancer cell lines
Kindly state log10 TGI for each of the entries shown.
Values below are the log10 of the recorded TGI, with µM as the unit.

These recorded examples may help you get a feel for the data.
smiles-input: O=C1Nc2ccc(Cl)cc2/C1=C\c1c(Cl)n(CCCc2ccccc2)c2ccccc12
log10 TGI: 0.96

smiles-input: O=C1Nc2ccccc2/C1=C\c1c(Cl)n(Cc2ccccc2)c2ccccc12
log10 TGI: 1.81

smiles-input: O=C1Nc2ccc(O)cc2/C1=C\c1c(Cl)n(CCc2ccccc2)c2ccccc12
log10 TGI: 1.40

smiles-input: COc1cc2c(/C=C3/C(=O)Nc4ccc(Cl)cc43)c(Cl)n(Cc3cc(OC)c(OC)c(OC)c3)c2cc1C
log10 TGI: 0.74

smiles-input: O=C1Nc2ccccc2/C1=C\c1c(Cl)n(CCCc2ccccc2)c2ccccc12
log10 TGI: 1.86

smiles-input: COc1cc2c(c(OC)c1OC)/C(=C\c1c(Cl)[nH]c3ccccc13)C(=O)N2
log10 TGI: 0.91

Batch lookup, log10 TGI per entry.
1. COc1c(/C=C2/C(=O)Nc3ccc(Cl)cc32)c2ccccc2n1-c1ccccc1
2. COc1ccc2c(c1)/C(=C\c1c(Cl)n(Cc3cc(OC)c(OC)c(OC)c3)c3cc(C)c(OC)cc13)C(=O)N2
3. O=C1/C(=C/c2c(Cl)[nH]c3ccccc23)c2ccccc2N1Cc1ccccc1

Result:
1: 1.14; 2: 1.76; 3: 1.75

###

experiment: Cytotoxicity against human renal cancer cells after 48 hrs; format: functional; details: Cancer cell lines
Where a name gives a salt, the structure may show the parent alone.
Kindly state GI50 for each of the entries shown.
Numbers only, in µM.

These recorded examples may help you get a feel for the data.
molecule: CC[C@]1(O)C[C@H]2CN(CCc3c([nH]c4ccccc34)[C@@](C(=O)OC)(c3cc4c(cc3OC)N(C=O)[C@H]3[C@@](O)(C(=O)OC)[C@H](OC(C)=O)[C@]5(CC)C=CCN6CC[C@]43[C@@H]65)C2)C1 [VINCRISTINE SULFATE]
measurement-units: µM
numeric-result: 0.32

molecule: COc1ccc(OC)c2c1NC(=O)/C2=C/c1c(Cl)[nH]c2ccccc12
measurement-units: µM
numeric-result: 3.39

Now for another entry.
Consider COc1cc2c(cc1C)NC(=O)/C2=C/c1c(Cl)n(Cc2cc(OC)c(OC)c(OC)c2)c2cc(C)c(OC)cc12 . Its measured GI50 is 38.9

###

Kindly state GI50 for each of the entries shown.
experiment: Cytotoxicity against human CNS cancer cells after 48 hrs; type: functional; settings: Cancer cell lines
Numbers only, in nM.

smiles-input: COc1cc2c(/C=C3/C(=O)Nc4cccc(Cl)c43)c(Cl)n(Cc3cc(OC)c(OC)c(OC)c3)c2cc1C
numeric-result: 3020

Batch lookup, GI50 per entry.
1. COc1cc2c(/C=C3/C(=O)Nc4ccc(O)cc43)c(Cl)n(Cc3cc(OC)c(OC)c(OC)c3)c2cc1C
2. COc1ccc2c(c1)/C(=C\c1c(Cl)n(Cc3cc(OC)c(OC)c(OC)c3)c3cc(C)c(OC)cc13)C(=O)N2
3. COc1ccc(OC)c2c1NC(=O)/C2=C/c1c(Cl)[nH]c2ccccc12

Result:
1. 2040
2. 16200
3. 2750

Origin of measurements: ChEMBL document CHEMBL3232816
